# System: NCI-H522 lung
# ASSAY OVERVIEW: NCI-60 one-dose screen, 48 h (100 = growth as untreated, 0 = no growth, -100 = all killed)
# RECORDED CONDITIONS: 10 µM unless noted
The panel holds about 83,000 compounds, 20% with a hit somewhere; the sample as a whole holds those more often.
PROPERTY LABEL: growth (%)
Just the number please, in %, no unit attached.

Q) Which value of growth has been reported for Cc1ccc(-c2cc(-c3ccccc3C)[nH]c(=O)c2C#N)s1 in the records?
A) 87.5

Q) Look up growth for this compound: Cn1c(=O)c2c(nc(Cl)n2CCl)n(C)c1=O
A) 84.8

Q) Would you mind telling me what growth value was observed for CCN1C(=O)N(CC)C2Nn3c(s/c(=C\c4ccc(Cl)cc4Cl)c3=O)=NC21 (stereo not drawn) ?
A) 12.3

Q) Please give the measured growth for this compound: N#CC1=C(c2ccc(Br)cc2)NC(SCC(=O)c2ccc(Br)cc2)NC1=O (stereo not drawn)
A) 99.5

Q) Given N#CC1=C(NC=O)Oc2c(ccc3ccccc23)C1c1ccccc1 (stereo not drawn) , state its recorded growth.
A) -2.8

Q) I would be grateful if you could share the reported growth for CCN(CC)c1ccc2nc3c4ccccc4c(=NC(=O)c4ccccc4-c4c5ccc(N(CC)CC)cc5[o+]c5cc(N(CC)CC)ccc45)cc-3oc2c1 .
A) -5.73

Q) May I ask what growth has been recorded for CCCCn1c(=O)c2c(nc(NCCc3ccc(O)c(O)c3)n2CCC)n(CCCC)c1=O ?
A) -0.778

Q) Could you tell me which growth is on file for C[C@H]1[C@H]2[C@H]3CC[C@@H]4[C@@]5(C)C/C(=C/c6ccco6)C(=O)C(C)(C)[C@@H]5CC[C@@]4(C)[C@]3(C)CC[C@]23CO[C@]1(C)[C@@H](C(=O)/C=C\c1ccco1)C3 ?
A) 85.7

###

# Tested on: SF-539 CNS
# ASSAY OVERVIEW: NCI-60 one-dose screen, 48 h (100 = growth as untreated, 0 = no growth, -100 = all killed)
# RECORDED CONDITIONS: 10 µM unless noted
About 83,000 compounds went through this panel and 20% of them were active in at least one assay; those are over-represented in the sample as a whole. Calls of active or inactive are those of the source. How the source made its calls: active means growth percent below 10; inactive means the rest.
Provide the recorded growth for the entries that follow.

Q) Recorded growth for NC(=S)N/N=C/Cc1ccccc1 with SF-539 CNS, please?
A) 109% (inactive)

Q) Query for SF-539 CNS: what growth does the record show for COC(=O)[C@]12CC[C@@H](C)[C@H](C)[C@@H]1C1=CC[C@@H]3[C@@]4(C)C(C=O)=C[C@@](C)(COC(C)=O)C4=CC[C@@]3(C)[C@]1(C)CC2 ?
A) -50.8% (active)

Q) What value of growth on SF-539 CNS does Cc1cc(NCc2cc(Nc3ccnc4cc(Cl)ccc34)ccc2F)nc(N2CCOCC2)n1 have?
A) -29.4% (active)

Q) Request: growth, test system SF-539 CNS, entry Clc1ccc(-c2c3ccc(=[N+]4CCCCC4)cc-3oc3cc(N4CCCCC4)ccc23)cc1
A) -93.4% (active)

Q) growth of CN(C)CCC=C1c2ccccc2C(C)(C)c2ccccc21 on SF-539 CNS?
A) 61.2% (inactive)

Q) Missing value: growth, SF-539 CNS, entry NS(=O)(=O)c1ccc(-n2nc(C(=O)N/N=C\c3ccc(F)cc3)cc2-c2ccc(Cl)cc2)cc1 . Fill in?
A) 88.1% (inactive)

Q) Which measured growth belongs to O=C(NCCCNc1cc(-c2cn(-c3ccccc3)nc2-c2cccc(O)c2)ccn1)c1ccccc1 , tested on SF-539 CNS?
A) 27.3% (inactive)

Q) What is its growth for SF-539 CNS? Entry: N#Cc1c(-c2cccc(Cl)c2)cc(-c2cccc(Cl)c2)[nH]c1=O
A) 82.7% (inactive)

Q) SF-539 CNS / growth / Cc1ccc2nc3ccccc3c(NCc3ccccc3)c2c1 : value?
A) 23.2% (inactive)

Each recorded value in this set is attributed to PubChem BioAssay (NCI).
